Test system: Moraxella catarrhalis
assayDetails: Antibacterial activity against Moraxella catarrhalis BC-3531 by micro-broth method
Assay type: functional

# itemSmiles, limitQualifier, MIC / mg/L
rows = [
    ("Cc1cc(C(=O)NC[C@H]2CN(c3cc(F)c4c(c3)CCCc3c(-c5cc(C)n(C)n5)n[nH]c3-4)C(=O)O2)nn1C", ">", 64),
    ("CC(=O)NC[C@H]1CN(c2ccc3c(c2)CCCc2c(-c4nc5ccccc5s4)n[nH]c2-3)C(=O)O1", ">", 64),
    ("Cc1cc(C(=O)NC[C@H]2CN(c3cc(F)c4c(c3)CCCc3c(-c5cc(C)on5)n[nH]c3-4)C(=O)O2)no1", ">", 64),
    ("CC(=O)NC[C@H]1CN(c2cc(F)c3c(c2)CCCc2c(-c4ccco4)n[nH]c2-3)C(=O)O1", "=", 8),
    ("CC(=O)NC[C@H]1CN(c2ccc3c(c2)CCCc2c(-c4nnc(-c5ccccc5)o4)n[nH]c2-3)C(=O)O1", ">", 64),
    ("CCc1n[nH]c2c1CCCc1cc(N3C[C@H](CNC(C)=O)OC3=O)ccc1-2", "=", 1),
    ("O=C(NC[C@H]1CN(c2ccc3c(c2)CCCc2c(-c4ccno4)n[nH]c2-3)C(=O)O1)c1ccno1", "=", 4),
    ("CCCc1n[nH]c2c1CCCc1cc(N3C[C@H](CNC(C)=O)OC3=O)ccc1-2", "=", 4),
    ("Cc1cc(C(=O)NC[C@H]2CN(c3ccc4c(c3)CCCc3c(-c5cc(C)on5)n[nH]c3-4)C(=O)O2)no1", ">", 64),
    ("CCOC(=O)NC[C@H]1CN(c2ccc3c(c2)CCCc2c(-c4ccno4)n[nH]c2-3)C(=O)O1", "=", 4),
    ("CC(=O)NC[C@H]1CN(c2ccc3c(c2)CCCc2c(-c4csc(-c5ccccc5)n4)n[nH]c2-3)C(=O)O1", ">", 64),
]

###

System: Staphylococcus aureus
assayDetails: Antibacterial activity against Staphylococcus aureus UC76 SA1 by micro-broth method
Type: functional
recordedEndpoint: MIC (µg/mL)

# itemSmiles, unitAbbreviation, limitQualifier, recordedValue
rows = [
    ("CC(=O)NC[C@H]1CN(c2ccc3c(c2)CCCc2c(C(F)(F)F)n[nH]c2-3)C(=O)O1", "µg/mL", "=", 1),
    ("CCc1n[nH]c2c1CCCc1cc(N3C[C@H](CNC(C)=O)OC3=O)ccc1-2", "µg/mL", "=", 0.5),
    ("CC(=O)NC[C@H]1CN(c2ccc3c(c2)CCCc2c(-c4csc(-c5ccccc5)n4)n[nH]c2-3)C(=O)O1", "µg/mL", "=", 8),
    ("CC(=O)NC[C@H]1CN(c2ccc3c(c2)CCCCC3=O)C(=O)O1", "µg/mL", "=", 1),
    ("CC(=O)NC[C@H]1CN(c2ccc3c(c2)CCCc2c(-c4ccoc4)n[nH]c2-3)C(=O)O1", "µg/mL", "=", 0.5),
    ("CC(=O)NC[C@H]1CN(c2ccc3c(c2)CCCc2c(-c4ccno4)n[nH]c2-3)C(=O)O1", "µg/mL", "=", 0.25),
    ("Cc1cc(C(=O)NC[C@H]2CN(c3ccc4c(c3)CCCc3c(-c5cc(C)on5)n[nH]c3-4)C(=O)O2)no1", "µg/mL", ">", 64),
    ("CC(=O)NC[C@H]1CN(c2cc(F)c3c(c2)CCCc2c(-c4cc(C)on4)n[nH]c2-3)C(=O)O1", "µg/mL", "=", 1),
    ("CC(=O)NC[C@H]1CN(c2ccc3c(c2)CCCc2c(C(C)C)n[nH]c2-3)C(=O)O1", "µg/mL", "=", 2),
    ("CC(=O)NC[C@H]1CN(c2cc(F)c3c(c2)CCCc2c(-c4ccco4)n[nH]c2-3)C(=O)O1", "µg/mL", "=", 2),
    ("CC(=O)NC[C@H]1CN(c2ccc3c(c2)CCCc2c(-c4snnc4C)n[nH]c2-3)C(=O)O1", "µg/mL", "=", 0.5),
    ("Cc1cc(C(=O)NC[C@H]2CN(c3cc(F)c4c(c3)CCCc3c(-c5cc(C)n(C)n5)n[nH]c3-4)C(=O)O2)nn1C", "µg/mL", ">", 64),
]
